Molecular target: human GnRH receptor (Homo sapiens, UniProt P30968)
Construct: expressed in transfected cells; host or cells: HEK 293 (hGnRH-R/293, from Dr. Stuart Sealfon)
Sequence (P30968 whole entry): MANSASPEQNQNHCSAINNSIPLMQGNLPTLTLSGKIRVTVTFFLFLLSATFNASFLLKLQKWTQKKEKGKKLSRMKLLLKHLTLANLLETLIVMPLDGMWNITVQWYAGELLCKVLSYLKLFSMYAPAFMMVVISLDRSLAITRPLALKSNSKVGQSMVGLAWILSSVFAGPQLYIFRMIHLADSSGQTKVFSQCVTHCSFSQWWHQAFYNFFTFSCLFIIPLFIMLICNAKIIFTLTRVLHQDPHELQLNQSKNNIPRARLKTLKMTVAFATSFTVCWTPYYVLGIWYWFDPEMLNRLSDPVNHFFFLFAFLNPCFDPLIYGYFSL
Experiment: Radioligand binding, 125I-GnRH-A displacement, membranes of HEK 293 cells with human GnRH receptor
Details: read-out: hGnRH IC50
outcome_measure: pIC50
Give bare numbers, as −log10 of the molar value.

Known pIC50 results, listed for orientation:
* Cc1cc2c(cc1Cc1ccc(C(=O)NC[C@H]3CC[C@H](CNc4ccnc(NC[C@@H]5CCCO5)n4)CC3)o1)C(C)(C)CCC2(C)C | 6.66
* COc1cccc(C)c1NC(=O)c1ccc(Cc2cc3c(cc2C)C(C)(C)CCC3(C)C)o1 | 6.12
* Cc1cc2c(cc1Cc1ccc(C(=O)N(Cc3ccccn3)CC(C)C)o1)C(C)(C)CCC2(C)C | 5.11

**Query** I'd like to know its pIC50. The compound in question is Cc1cc2c(cc1Cc1ccc(C(=O)NCC3CCN(c4ccnc(Cl)n4)CC3)o1)C(C)(C)CCC2(C)C
**Result** 6.44
